Assignment: determine reported GI50 for the given molecules.
- System: DMS-114
- protocol: NCI tumour cell line growth inhibition, 48 h
Calls of active or inactive are those of the source. Cut-off read from the data, not from the text of the source: active = GI50 up to about 1.1 µM and inactive = higher.

QUERY: // GI50 lookup, key: C1CCN(c2nsc(N3CCCCC3)n2)CC1
RESULT: > 100 µM (inactive)

QUERY: Can you look up the measured GI50 of COC(=O)c1ccccc1NC(=O)C(=O)CC(=O)c1ccccc1NC1=CC(=O)C(=O)c2ccccc21 for me?
RESULT: 1.71 µM (inactive)

QUERY: Using the record for COc1cc(OC)cc(C(=O)Cc2c(C(=O)c3ccccc3)c3ccccc3n2C(=O)c2ccccc2)c1 , report its GI50.
RESULT: 15.5 µM (inactive)

QUERY: May I ask what GI50 has been recorded for COc1cccc(NC(=O)C(C)(C)C)c1SSc1c(NC(=O)C(C)(C)C)cccc1OC ?
RESULT: > 10 µM (inactive)

QUERY: I have this molecule here, CC(=O)NC(CCCN)C(=O)NCc1ccccc1 (configuration not stated) , and I need its recorded GI50.
RESULT: > 100 µM (inactive)

QUERY: Request the reported GI50 associated with CC1=C(C(=O)Nc2cc(F)c(F)cc2F)C(c2ccc(N(C)C)cc2)C(C(=O)Nc2cc(F)c(F)cc2F)=C(C)N1
RESULT: 17.2 µM (inactive)

QUERY: Reported GI50, molecule COc1cc2c(cc1OC)[C@@H](Nc1ccc(F)cc1)C1COC(=O)[C@@H]1C2c1cc(OC)c(O)c(OC)c1 (some centres not stated) : ____
RESULT: 1.15 µM (inactive)

QUERY: Look at this molecule and give its reported GI50. Cc1cc(N(CCOS(C)(=O)=O)CCOS(C)(=O)=O)ccc1/C=N/c1ccc(-c2nc(Cc3ccccc3)sc2C)cc1
RESULT: 7.91 µM (inactive)

QUERY: // lookup GI50 for CC(C)N(C(=O)C1(C)CC1)C(C)C
RESULT: > 100 µM (inactive)

QUERY: Quick one: GI50 for Nc1ncc2c(n1)-c1ccccc1OC2 ?
RESULT: > 100 µM (inactive)

QUERY: # query: GI50 of entry CCCCCCCCCCCCCC(=O)OCC1OC(=O)C(O)C1O (configuration not stated)
RESULT: > 100 µM (inactive)

QUERY: Which GI50 is listed for CC1OC(OC2C(OC(=O)[C@]34CCC(C)(C)CC3C3=CCC5[C@@]6(C)C[C@H](O)[C@H](OC7OC(CO)C(O)C(O)C7N)[C@@](C)(C(=O)O)C6CC[C@@]5(C)C3(C)CC4)OCC(O)C2O)C(O)C(O)C1OC1OCC(O)C(O)C1O (some centres not stated) ?
RESULT: > 100 µM (inactive)
